- Tested on: SK-OV-3 ovarian
- run-description: NCI tumour cell line growth inhibition, 48 h; in the data active means GI50 below about 0.43 µM; inactive means the rest
Return exactly one item of yes (active), no (inactive)

molecule | group-label
Cn1cc(C2=C(c3cn(C)c4ccccc34)C(=O)NC2=O)c2ccccc21 | no
COc1ccc2nc3cc(Cl)ccc3c(Sc3ccc([N+](=O)[O-])cc3)c2c1 | no
O=C1c2ccccc2-c2c1c1ccccc1c(=O)n2CCCNCCCCNCCCN1C(=O)c2ccccc2C2C(=O)c3ccccc3C21 (stereo not drawn) | no

INPUT: Returns: the outcome recorded for Oc1cc2ccccc2c(-c2c(O)c(O)cc3ccccc23)c1O in this assay.
OUTPUT: no

INPUT: How did this test come out for Cn1c(/C=C/[N+](=O)[O-])cc2ccccc21 ?
OUTPUT: no

INPUT: Assay result, entry Clc1ccc(-c2cc(-c3ccccc3)nc(NCCNc3ccnc4cc(Cl)ccc34)n2)cc1 — outcome?
OUTPUT: no

INPUT: Per the records of this test, what outcome belongs to COc1ccc(/C=C/C(=O)c2ccc(OC)c(OC)c2)cc1O ?
OUTPUT: no

INPUT: Which outcome was entered for the molecule COc1cc(-c2c(C#N)c(N)nc(N3CCOCC3)c2C#N)cc(OC)c1OC in this test?
OUTPUT: no

INPUT: Please state the recorded outcome for this molecule: Cc1ccc(Cl)c(Nc2ccccc2C(=O)O)c1Cl
OUTPUT: no

INPUT: Short answer needed: outcome of this test for CCCCCCCCCCCCCCCCC(=O)O.CCCCCCCCCCCCCCCCCC(=O)O.CCCCCCCCCCCCCCCCCC(=O)O.CCCCCCCCCCCCCCCCCC(=O)O.CCCCCCCCCCCCCCCCCC(=O)O.CO[CH-]OC12COC1CC(O)C1(C)C(O)C(OC(C)O)C3=C(C)C(OC(=O)C(O)C([NH-])c4ccccc4)CC(O)(C(OC(=O)c4ccccc4)C21)C3(C)C.[Cu+].[Zn].[Zn].[Zn].[Zn].[Zn] (stereo not drawn) ?
OUTPUT: yes

INPUT: Field: outcome | Entry: COc1cc(/C=C/C(=O)N2CCN(C(=O)c3cc(OC)c(OC)c(OC)c3)CC2)ccc1OCCCOc1cc2c(cc1OC)C(=O)N1CCC[C@H]1C=N2
OUTPUT: no

INPUT: Please share the test call associated with CCCCCCCCn1ccc2cc(NC(=O)Cn3cc(CN4CCCCC4)nn3)ccc21 .
OUTPUT: no
